test: Pharmacokinetics in rat plasma; type: in vivo, Wistar rats; conditions: Wistar, rat, plasma, po, 100 mg/kg, AUC0-t, FT-C: normal (blank) rats, oral FT 100 mg kg^−1, n = 6
PROPERTY: AUC(0-t) (ng·h/mL)
Reply numerically in ng·h/mL, unit not repeated.

smiles_repr=O=C(/C=C/c1ccc(O)c2c1[C@H](C(=O)O)[C@@H](c1ccc(O)c(O)c1)O2)O[C@H](Cc1ccc(O)c(O)c1)C(=O)O property=AUC(0-t) experimental_result=119

Answer with the recorded AUC(0-t) of C[C@@H]1O[C@@H](OC[C@H]2O[C@@H](Oc3c(-c4ccc(O)c(O)c4)oc4cc(O)cc(O)c4c3=O)[C@H](O)[C@@H](O)[C@@H]2O)[C@H](O)[C@H](O)[C@H]1O only. 77.9

Answer with the recorded AUC(0-t) of O=C(/C=C/c1ccc(O)c(O)c1/C=C/c1ccc(O)c(O)c1)O[C@H](Cc1ccc(O)c(O)c1)C(=O)O only. 122

Answer with the recorded AUC(0-t) of O=C(O)/C=C/c1ccc(O)c(O)c1 only. 31.7

Answer with the recorded AUC(0-t) of O=C(/C=C/c1ccc(O)c(O)c1)O[C@H](Cc1ccc(O)c(O)c1)C(=O)O only. 104

----------
experiment: Pharmacokinetics in rat plasma; type: in vivo, Wistar rats; conditions: Wistar, rat, plasma, po, 100 mg/kg, AUC0-∞, FT-C: normal (blank) rats, oral FT 100 mg kg^−1, n = 6
Known AUC(0-inf) of a selection of molecules
Reply numerically in ng·h/mL, unit not repeated.

Example molecules with recorded AUC(0-inf):
smiles_repr=O=C(O)/C=C/c1ccc(O)c(O)c1 property=AUC(0-inf) experimental_result=44.4
smiles_repr=O=C(/C=C/c1ccc(O)c2c1[C@H](C(=O)O)[C@@H](c1ccc(O)c(O)c1)O2)O[C@H](Cc1ccc(O)c(O)c1)C(=O)O property=AUC(0-inf) experimental_result=119
smiles_repr=O=C(/C=C/c1ccc(O)c(O)c1)O[C@H](Cc1ccc(O)c(O)c1)C(=O)O property=AUC(0-inf) experimental_result=109
smiles_repr=O=C(/C=C/c1ccc(O)c(O)c1/C=C/c1ccc(O)c(O)c1)O[C@H](Cc1ccc(O)c(O)c1)C(=O)O property=AUC(0-inf) experimental_result=162

Now let's try a different one.
Answer with the recorded AUC(0-inf) of C[C@@H]1O[C@@H](OC[C@H]2O[C@@H](Oc3c(-c4ccc(O)c(O)c4)oc4cc(O)cc(O)c4c3=O)[C@H](O)[C@@H](O)[C@@H]2O)[C@H](O)[C@H](O)[C@H]1O only. 116

----------
assay: Stability test of QC samples; format: physicochemical, rat; conditions: Store at 4 °C for 24 h; high concentration QC sample in rat plasma
Known Stability, Accuracy (RE, %) of a selection of compounds

smiles_repr=O=C(/C=C/c1ccc(O)c2c1[C@H](C(=O)O)[C@@H](c1ccc(O)c(O)c1)O2)O[C@H](Cc1ccc(O)c(O)c1)C(=O)O experimental_result=7.65%
smiles_repr=C[C@@H]1O[C@@H](OC[C@H]2O[C@@H](Oc3c(-c4ccc(O)c(O)c4)oc4cc(O)cc(O)c4c3=O)[C@H](O)[C@@H](O)[C@@H]2O)[C@H](O)[C@H](O)[C@H]1O experimental_result=0.42%

Now let's try a different one.
Answer with the recorded Stability, Accuracy (RE, %) of O=C(/C=C/c1ccc(O)c(O)c1)O[C@H](Cc1ccc(O)c(O)c1)C(=O)O only. 5.57%
